Tested Target: MMP2 (Homo sapiens)
Sequence (P08253 110-660): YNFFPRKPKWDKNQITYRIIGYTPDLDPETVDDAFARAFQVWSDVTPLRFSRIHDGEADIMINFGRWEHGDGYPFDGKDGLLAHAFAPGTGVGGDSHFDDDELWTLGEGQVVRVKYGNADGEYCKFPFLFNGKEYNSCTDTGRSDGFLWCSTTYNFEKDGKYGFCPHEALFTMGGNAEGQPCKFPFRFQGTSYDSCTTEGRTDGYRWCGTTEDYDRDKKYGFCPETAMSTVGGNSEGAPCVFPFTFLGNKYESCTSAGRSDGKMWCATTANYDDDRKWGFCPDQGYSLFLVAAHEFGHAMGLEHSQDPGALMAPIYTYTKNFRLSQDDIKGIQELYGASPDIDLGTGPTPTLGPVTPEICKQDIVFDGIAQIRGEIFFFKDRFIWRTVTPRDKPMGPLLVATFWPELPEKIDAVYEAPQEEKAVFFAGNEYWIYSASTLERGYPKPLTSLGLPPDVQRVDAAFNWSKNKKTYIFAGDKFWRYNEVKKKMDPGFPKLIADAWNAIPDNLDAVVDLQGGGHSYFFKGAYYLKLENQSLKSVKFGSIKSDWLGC
Protocol Text: Inhibitory effects on human MMP2 (Method 1), enzyme assay with MOCAc-Pro-Leu-Gly-Leu-A2pr(Dnp)-Ala-Arg-NH2 substrate, 96-well
Assay type: biochemical
Recorded Conditions: Test Example No. 1-1 (Method 1, 96-well microplate); read-out: Human MMP2, IC50
*1 amine or outer side, *2 acyl side, *3 side chain or, on linkers, in order; H or OH if unused. Where a SMILES comes first, the peptide text is derived from it. [ ]: non-standard residue; d: D form. The star is where a group is joined. Benzoyl(4-O-C6H4-4-CONHMe) = CNC(=O)c1ccc(Oc2ccc(C(=O)*)cc2)cc1; X1 = O=C(Nc1ccc(S(=O)(=O)*)cc1)c1ccc(OC(F)(F)F)cc1; Benzoyl(4-OPh) = O=C(c1ccc(Oc2ccccc2)cc1)*; d(γGlu) = O=C(O)[C@@H](CCC(=O)[*:2])N[*:1]; NMeI = CC[C@H](C)[C@H](NC)C(=O)O; NMeN = CN[C@@H](CC(N)=O)C(=O)O; β3hP = O=C(O)C[C@@H]1CCCN1; Dab = NCC[C@H](N)C(=O)O; GABA = NCCCC(=O)O
As shown below, each of these compounds has a reported IC50 value.
Could you give me the number in nM? Just the number is fine.

Compound	IC50, nM
CC[C@H](C)[C@@H](C(=O)N1CCC[C@H]1CC(N)=O)N(C)C(=O)[C@H](CC(C)C)NC(=O)[C@H](CCN)NC(=O)CC[C@@H](NS(=O)(=O)c1ccc(NC(=O)c2ccc(OC(F)(F)F)cc2)cc1)C(=O)O [Compound 701] ({X1-d(γGlu)}-[Dab]L[NMeI][β3hP]-NH2; N-terminus assumed)	0.27

Look at this compound and give its reported IC50. CC[C@H](C)[C@@H](C(=O)N1CCC[C@H]1C(N)=O)N(C)C(=O)[C@H](CC(C)C)NC(=O)[C@H](C)NC(=O)[C@H](CC(=O)O)NC(=O)[C@H](CC(N)=O)N(C)C(=O)CCCNC(=O)c1ccc(Oc2ccccc2)cc1 [Compound 94] ({Benzoyl(4-OPh)-GABA}-[NMeN]DAL[NMeI]P-NH2; N-terminus assumed)
0.088

Look at this compound and give its reported IC50. CNC(=O)c1ccc(Oc2ccc(C(=O)NCCCC(=O)N[C@@H](CC(N)=O)C(=O)N[C@@H](CC(=O)O)C(=O)N[C@@H](C)C(=O)N[C@@H](CC(C)C)C(=O)N[C@@H](CCSC)C(=O)N3CCC[C@H]3C(N)=O)cc2)cc1 [Compound 177] ({Benzoyl(4-O-C6H4-4-CONHMe)-GABA}-NDALMP-NH2)
0.21

----------
As shown below, each of these compounds has a reported IC50 value.
Tested Target: MMP2 (Homo sapiens, UniProt P08253)
Protocol Text: Inhibitory effects on human MMP2 (Method 1), enzyme assay with MOCAc-Pro-Leu-Gly-Leu-A2pr(Dnp)-Ala-Arg-NH2 substrate, 96-well
Type: biochemical
Recorded Conditions: Test Example No. 1-1 (Method 1, 96-well microplate); read-out: Human MMP2, IC50
*1 amine or outer side, *2 acyl side, *3 side chain or, on linkers, in order; H or OH if unused. Where a SMILES comes first, the peptide text is derived from it. [ ]: non-standard residue; d: D form. The star is where a group is joined. Phenylsulfonyl(4-anisamido) = COc1ccc(C(=O)Nc2ccc(S(=O)(=O)*)cc2)cc1; Benzoyl(4-(4-EtNHCO-PhO)) = CCNC(=O)c1ccc(Oc2ccc(C(=O)*)cc2)cc1; X1 = O=C(Nc1ccc(S(=O)(=O)*)cc1)c1ccc(OC(F)(F)F)cc1; X11 = O=C(O)CCCCNC(=O)c1ccc(Oc2ccc(C(=O)*)cc2)cc1; Benzoyl(4-OPh) = O=C(c1ccc(Oc2ccccc2)cc1)*; d(γGlu) = O=C(O)[C@@H](CCC(=O)[*:2])N[*:1]; d(βAsp) = O=C(O)[C@@H](CC(=O)[*:2])N[*:1]; NMeW = CN[C@@H](Cc1c[nH]c2ccccc12)C(=O)O; NMeF = CN[C@@H](Cc1ccccc1)C(=O)O; NMeI = CC[C@H](C)[C@H](NC)C(=O)O; NMeE = CN[C@@H](CCC(=O)O)C(=O)O; NMeN = CN[C@@H](CC(N)=O)C(=O)O; NMeM = CN[C@@H](CCSC)C(=O)O; β3hP = O=C(O)C[C@@H]1CCCN1; Orn = NCCC[C@H](N)C(=O)O; Dab = NCC[C@H](N)C(=O)O; Dap = NC[C@H](N)C(=O)O; Aib = CC(C)(N)C(=O)O; Ava = NCCCCC(=O)O; GABA = NCCCC(=O)O
Could you give me the number in nM? Just the number is fine.

# count of solved cases: 10
Compound	Tested Target	Value Reported
CC[C@H](C)[C@@H](C(=O)N1CCC[C@H]1C(N)=O)N(C)C(=O)[C@H](CC(C)C)NC(=O)[C@H](CCN)NC(=O)[C@H](CC(=O)O)NC(=O)[C@H](CC(N)=O)NC(=O)CCCNC(=O)c1ccc(Oc2ccccc2)cc1 [Compound 107] ({Benzoyl(4-OPh)-GABA}-ND[Dab]L[NMeI]P-NH2; N-terminus assumed)	MMP2 (Homo sapiens, UniProt P08253)	0.32
CC[C@H](C)[C@@H](C(=O)N1CCC[C@H]1C(N)=O)N(C)C(=O)[C@H](CC(C)C)NC(=O)[C@H](C)NC(=O)[C@H](CC(=O)O)NC(=O)[C@H](Cc1c[nH]c2ccccc12)N(C)C(=O)CCCNC(=O)c1ccc(Oc2ccccc2)cc1 [Compound 130] ({Benzoyl(4-OPh)-GABA}-[NMeW]DAL[NMeI]P-NH2; N-terminus assumed)	MMP2 (Homo sapiens, UniProt P08253)	0.36
CC[C@H](C)[C@@H](C(=O)N1CCC[C@H]1C(N)=O)N(C)C(=O)[C@H](CC(C)C)NC(=O)[C@H](CCN)NC(=O)[C@H](CC(=O)O)NC(=O)[C@H](CCSC)N(C)C(=O)CCCNC(=O)c1ccc(Oc2ccccc2)cc1 [Compound 134] ({Benzoyl(4-OPh)-GABA}-[NMeM]D[Dab]L[NMeI]P-NH2)	MMP2 (Homo sapiens, UniProt P08253)	2
CC[C@H](C)[C@@H](C(=O)NC(C)(C)C(N)=O)N(C)C(=O)[C@H](CC(C)C)NC(=O)[C@H](C)NC(=O)[C@H](CC(=O)O)NC(=O)[C@H](CC(N)=O)N(C)C(=O)CCCNC(=O)c1ccc(Oc2ccccc2)cc1 [Compound 98] ({Benzoyl(4-OPh)-GABA}-[NMeN]DAL[NMeI][Aib]-NH2; N-terminus assumed)	MMP2 (Homo sapiens, UniProt P08253)	0.27
COc1ccc(C(=O)Nc2ccc(S(=O)(=O)N[C@H](CC(=O)N[C@@H](CN)C(=O)N[C@@H](CC(C)C)C(=O)N(C)[C@@H](CCC(=O)O)C(=O)N3CCC[C@H]3CC(N)=O)C(=O)O)cc2)cc1 [Compound 691] ({Phenylsulfonyl(4-anisamido)-d(βAsp)}-[Dap]L[NMeE][β3hP]-NH2; N-terminus assumed)	MMP2 (Homo sapiens, UniProt P08253)	0.065
CC[C@H](C)[C@@H](C(=O)N1CCC[C@H]1CC(N)=O)N(C)C(=O)[C@H](CC(C)C)NC(=O)[C@H](CN)NC(=O)C[C@@H](NS(=O)(=O)c1ccc(NC(=O)c2ccc(OC)cc2)cc1)C(=O)O [Compound 692] ({Phenylsulfonyl(4-anisamido)-d(βAsp)}-[Dap]L[NMeI][β3hP]-NH2)	MMP2 (Homo sapiens, UniProt P08253)	0.068
CC(C)C[C@H](NC(=O)[C@H](CCN)NC(=O)CC[C@@H](NS(=O)(=O)c1ccc(NC(=O)c2ccc(OC(F)(F)F)cc2)cc1)C(=O)O)C(=O)N(C)[C@@H](CCC(=O)O)C(=O)N1CCC[C@H]1CC(N)=O [Compound 704] ({X1-d(γGlu)}-[Dab]L[NMeE][β3hP]-NH2; N-terminus assumed)	MMP2 (Homo sapiens, UniProt P08253)	0.42
CC(C)C[C@H](NC(=O)[C@H](CCN)NC(=O)[C@H](CC(=O)O)NC(=O)[C@H](CCCN)NC(=O)CCCNC(=O)c1ccc(Oc2ccccc2)cc1)C(=O)N(C)[C@@H](CCC(=O)O)C(=O)N1CCC[C@H]1CC(N)=O [Compound 145] ({Benzoyl(4-OPh)-GABA}-[Orn]D[Dab]L[NMeE][β3hP]-NH2; N-terminus assumed)	MMP2 (Homo sapiens, UniProt P08253)	0.72
CC[C@H](C)[C@@H](C(=O)N1CCC[C@H]1C(N)=O)N(C)C(=O)[C@H](CC(C)C)NC(=O)[C@H](C)NC(=O)[C@H](CC(=O)O)NC(=O)[C@H](Cc1ccccc1)N(C)C(=O)CCCNC(=O)c1ccc(Oc2ccccc2)cc1 [Compound 124] ({Benzoyl(4-OPh)-GABA}-[NMeF]DAL[NMeI]P-NH2; N-terminus assumed)	MMP2 (Homo sapiens, UniProt P08253)	0.31
CC(C)C[C@H](NC(=O)[C@H](CCN)NC(=O)[C@H](CC(=O)O)NC(=O)[C@H](CCC(=O)O)NC(=O)CCCNC(=O)c1ccc(Oc2ccccc2)cc1)C(=O)N(C)[C@@H](CCC(=O)O)C(=O)N1CCC[C@H]1CC(N)=O [Compound 144] ({Benzoyl(4-OPh)-GABA}-ED[Dab]L[NMeE][β3hP]-NH2; N-terminus assumed)	MMP2 (Homo sapiens, UniProt P08253)	0.26

Provide the documented IC50 with MMP2 (Homo sapiens, UniProt P08253) as the system for CC[C@H](C)[C@@H](C(=O)N1CCC[C@H]1CC(N)=O)N(C)C(=O)[C@H](CC(C)C)NC(=O)[C@H](CCN)NC(=O)[C@H](CC(=O)O)NC(=O)[C@H](CCC(=O)O)NC(=O)CCCCNC(=O)c1ccc(Oc2ccc(C(=O)NCCCCC(=O)O)cc2)cc1 [Compound 200] ({X11-Ava}-ED[Dab]L[NMeI][β3hP]-NH2; N-terminus assumed)
7.4

Provide the documented IC50 with MMP2 (Homo sapiens, UniProt P08253) as the system for CCNC(=O)c1ccc(Oc2ccc(C(=O)NCCCCC(=O)N[C@@H](CCCCN)C(=O)N[C@@H](CC(=O)O)C(=O)N[C@@H](CCN)C(=O)N[C@@H](CC(C)C)C(=O)N(C)[C@H](C(=O)N3CCC[C@H]3CC(N)=O)[C@@H](C)CC)cc2)cc1 [Compound 193] ({Benzoyl(4-(4-EtNHCO-PhO))-Ava}-KD[Dab]L[NMeI][β3hP]-NH2; N-terminus assumed)
1.7
